System: Nucleic Acid
Assay: Binding affinity to DNA minor groove region CGCAAATTTGCG assessed as change in melting temperature at 6 uM by thermal denaturation study
Format: nucleic-acid assay
measurementType: ΔTm (°C)

Field: example entries. Status: answers known.
Cn1cc(NC(=O)c2cc(NC(=O)Nc3ccccc3)cn2C)cc1C(=O)NCCc1c[nH]c2ccccc12 6
COC(=O)Nc1cc(C(=O)Nc2cc(C(=O)OCCc3ccccc3)n(C)c2)n(C)c1 25
Cn1cc(NC(=O)c2cc(NC(=O)OCc3ccccc3)cn2C)cc1C(=O)NCCc1c[nH]c2ccccc12 17
Cn1cc(NC(=O)c2cc(NC(=O)CNC(=N)N)cn2C)cc1C(=O)NCCC(=N)N 18

[P] Cn1cc(NC(=O)c2cc(NC(=O)c3cc(NC=O)cn3C)cn2C)cc1C(=O)NCCC(=N)N
[Q] Cn1cc(NC(=O)c2cc(NC(=O)OCC(Cl)(Cl)Cl)cn2C)cc1C(=O)NCCc1c[nH]c2ccccc12
Record comparison, field ΔTm: mark the lower of P and Q . Could you answer with the label of the item you picked? Q
(Q: 11 °C, P: 16 °C)
